Biological target: UniProt P05121
Assay: PAI chromogenic substrate assay (first S2251 assay, tPA/plasminogen system)
Assay type: biochemical
Conditions: Concentration 50 μm
Method: In this assay, a compound is incubated with PAI-1 prior to addition to the tPA assay system. Inhibition of PAI-1 results in the production of plasmin from plasminogen. In turn, plasmin cleaves the chromogenic substrate S2251 (Kabi Vitrum) producing pNA (p-nitroaniline) which is detected spectrophotometrically at 405 nm (K. Nilsson et al, Fibrinolysis (1987) 1, 163-168). Compounds of formula (A) were tested in a PAI chromogenic substrate assay. […]
measurement type: Inhibition of PAI-1 in the first S2251 chromogenic substrate assay (%)

INSERT INTO results (compound, measurement_units, numeric_result) VALUES
  ('CC(=O)Nc1ccc(/C=c2\[nH]c(=O)/c(=C/c3ccc(CNC(=O)OC(C)(C)C)cc3)[nH]c2=O)cc1 [Compound 68]', '%', 89),
  ('CC(=O)Nc1ccc(/C=c2\[nH]c(=O)/c(=C/c3c(Cl)cccc3Cl)[nH]c2=O)cc1 [Compound 40]', '%', 61),
  ('CN(C)CCCOc1ccc(/C=c2\[nH]c(=O)/c(=C/c3ccccc3)[nH]c2=O)cc1 [Compound 75]', '%', 52);

[a] O=c1[nH]/c(=C\c2ccc(O)cc2Cl)c(=O)[nH]/c1=C\c1ccccc1 [Compound 85]
[b] COc1ccc(/C=c2\[nH]c(=O)/c(=C/c3ccccc3C(F)(F)F)[nH]c2=O)cc1 [Compound 70]
Task item: Hey, which is lower on measured Inhibition of PAI-1 in the first S2251 chromogenic substrate assay, a or b ? Lab log: write the label of the selected item as the result.
Reply: a
(a: 49%, b: 78%)

----------
Target: UniProt:P05121
Experiment: PAI chromogenic substrate assay (first S2251 assay, tPA/plasminogen system)
Format: biochemical
Details: Concentration 6.25 μm
measurement type: Inhibition of PAI-1 in the first S2251 chromogenic substrate assay (%)

Some compounds with recorded Inhibition of PAI-1 in the first S2251 chromogenic substrate assay:
INSERT INTO measurements (smiles_record, tgt, measurement_units, numeric_result) VALUES
  ('CC(=O)Nc1ccc(/C=c2\[nH]c(=O)/c(=C/c3ccc(N(C)C)cc3)[nH]c2=O)cc1', 'UniProt:P05121', '%', 31),
  ('CC(=O)Nc1ccc(/C=c2\[nH]c(=O)/c(=C/c3ccccc3Br)[nH]c2=O)cc1', 'UniProt:P05121', '%', 1),
  ('COc1ccc(/C=c2\[nH]c(=O)/c(=C/c3c(Cl)cccc3Cl)[nH]c2=O)cc1', 'UniProt:P05121', '%', 0);

[A] CC(=O)Nc1ccc(/C=c2\[nH]c(=O)/c(=C/c3ccc(F)cc3F)[nH]c2=O)cc1
[B] COC(=O)CCCCOc1ccc(/C=c2\[nH]c(=O)/c(=C/c3ccccc3)[nH]c2=O)cc1
[C] COC(=O)COc1ccc(/C=c2\[nH]c(=O)/c(=C/c3ccccc3)[nH]c2=O)cc1
Task item: Rank descending by Inhibition of PAI-1 in the first S2251 chromogenic substrate assay. Response format: the labels, sorted as the prompt asks.
Reply: B, C, A
(B: 5%, C: 2%, A: 1%)

----------
Molecular target: PAI-1 (Homo sapiens, UniProt P05121)
Sequence (P05121 24-402): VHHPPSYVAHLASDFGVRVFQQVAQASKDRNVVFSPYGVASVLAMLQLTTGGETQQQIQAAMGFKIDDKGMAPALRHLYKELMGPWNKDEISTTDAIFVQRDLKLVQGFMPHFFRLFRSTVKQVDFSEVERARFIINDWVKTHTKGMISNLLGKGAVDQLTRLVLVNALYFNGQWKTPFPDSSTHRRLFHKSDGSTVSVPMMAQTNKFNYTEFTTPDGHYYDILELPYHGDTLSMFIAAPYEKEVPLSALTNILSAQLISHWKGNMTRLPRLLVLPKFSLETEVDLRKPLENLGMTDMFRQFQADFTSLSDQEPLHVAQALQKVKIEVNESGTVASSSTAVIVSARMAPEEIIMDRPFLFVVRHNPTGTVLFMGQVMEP
Test: PAI chromogenic substrate assay (first S2251 assay, tPA/plasminogen system)
Assay type: biochemical
Details: Concentration 100 μm
measurement type: Inhibition of PAI-1 in the first S2251 chromogenic substrate assay (%)

INSERT INTO results (molecule, numeric_result) VALUES
  ('CN(C)CCCOc1ccc(/C=c2\[nH]c(=O)/c(=C/c3ccccc3)[nH]c2=O)cc1 [Compound 75]', 59),
  ('CSCc1ccc(/C=c2\[nH]c(=O)/c(=C/c3ccccc3)[nH]c2=O)cc1', 71),
  ('COC(=O)COc1ccc(/C=c2\[nH]c(=O)/c(=C/c3ccccc3)[nH]c2=O)cc1', 91),
  ('CC(=O)Nc1ccc(/C=c2\[nH]c(=O)/c(=C/c3ccc(COC(C)=O)cc3)[nH]c2=O)cc1', 60),
  ('CC(=O)Nc1ccccc1/C=c1\[nH]c(=O)/c(=C/c2ccccc2)[nH]c1=O', 64),
  ('CCOC(=O)CCCCC(=O)NCc1ccc(/C=c2\[nH]c(=O)/c(=C/c3ccccc3)[nH]c2=O)cc1', 69),
  ('CC(C)(C)c1ccc(/C=c2\[nH]c(=O)/c(=C/c3ccccc3)[nH]c2=O)cc1', 79),
  ('COc1ccc(/C=c2\[nH]c(=O)/c(=C/c3ccc(OC(=O)C(C)(C)C)cc3)[nH]c2=O)cc1', 64),
  ('CN(C)c1ccc(/C=c2\[nH]c(=O)/c(=C/c3ccccc3)[nH]c2=O)c2ccccc12', 63),
  ('CCCCOc1ccc(/C=c2\[nH]c(=O)/c(=C/c3ccccc3)[nH]c2=O)cc1', 73),
  ('COc1ccc(/C=c2\[nH]c(=O)/c(=C/c3ccccc3)[nH]c2=O)cc1OC', 75),
  ('O=c1[nH]/c(=C\c2ccccc2Br)c(=O)[nH]/c1=C\c1ccccc1', 65);

----------
Target: PAI-1 (Homo sapiens, UniProt P05121)
Experiment: PAI chromogenic substrate assay (first S2251 assay, tPA/plasminogen system)
Assay type: biochemical
Conditions: Concentration 50 μm
measurement type: Inhibition of PAI-1 in the first S2251 chromogenic substrate assay (%)

Some compounds with recorded Inhibition of PAI-1 in the first S2251 chromogenic substrate assay:
INSERT INTO assay_data (compound, measurement_units, numeric_result) VALUES
  ('CCOC(=O)CCCCC(=O)NCc1ccc(/C=c2\[nH]c(=O)/c(=C/c3ccccc3)[nH]c2=O)cc1 [Compound 95]', '%', 71),
  ('CC(C)(C)OC(=O)NCc1ccc(/C=c2\[nH]c(=O)/c(=C/c3ccccc3)[nH]c2=O)cc1 [Compound 66]', '%', 70);

[P] COc1ccc(/C=c2\[nH]c(=O)/c(=C/c3ccc(F)cc3F)[nH]c2=O)cc1 [Compound 69]
[Q] COC(=O)COc1ccc(/C=c2\[nH]c(=O)/c(=C/c3ccccc3)[nH]c2=O)cc1 [Compound 93]
Task item: Hey, which is lower on measured Inhibition of PAI-1 in the first S2251 chromogenic substrate assay, P or Q ? Lab log: write the label of the selected item as the result.
Reply: P

----------
Molecular target: PAI-1 (Homo sapiens, UniProt P05121)
Test: PAI chromogenic substrate assay (first S2251 assay, tPA/plasminogen system)
Type: biochemical
Conditions: Concentration 25 μm
measurement type: Inhibition of PAI-1 in the first S2251 chromogenic substrate assay (%)

Some compounds with recorded Inhibition of PAI-1 in the first S2251 chromogenic substrate assay:
INSERT INTO results (smiles_record, measurement_units, numeric_result) VALUES
  ('CCOC(=O)CCCCC(=O)NCc1ccc(/C=c2\[nH]c(=O)/c(=C/c3ccccc3)[nH]c2=O)cc1', '%', 45),
  ('COc1ccc(/C=c2\[nH]c(=O)/c(=C/c3ccc(CSC)cc3)[nH]c2=O)cc1', '%', 38);

[A] CC(=O)Nc1ccc(/C=c2\[nH]c(=O)/c(=C/c3ccccc3C(F)(F)F)[nH]c2=O)cc1
[B] Nc1ccccc1/C=c1\[nH]c(=O)/c(=C/c2ccccc2)[nH]c1=O
Task item: Hey, which is lower on measured Inhibition of PAI-1 in the first S2251 chromogenic substrate assay, A or B ? Lab log: write the label of the selected item as the result.
Reply: B
(B: 1%, A: 36%)

----------
Target: PAI-1 (Homo sapiens, UniProt P05121)
Assay: PAI chromogenic substrate assay (first S2251 assay, tPA/plasminogen system)
Assay type: biochemical
Details: Concentration 50 μm
measurement type: Inhibition of PAI-1 in the first S2251 chromogenic substrate assay (%)

INSERT INTO results (smiles_record, numeric_result) VALUES
  ('CC(=O)Nc1ccc(/C=c2\[nH]c(=O)/c(=C/c3ccccc3Br)[nH]c2=O)cc1', 55),
  ('COc1ccc(/C=c2\[nH]c(=O)/c(=C/c3ccc(C(C)(C)C)cc3)[nH]c2=O)cc1', 37),
  ('COc1ccc(/C=c2\[nH]c(=O)/c(=C/c3ccc(OC(C)C)cc3)[nH]c2=O)cc1', 47);

Entry source: patent US5700804A
